target: hGLP-1R (Homo sapiens); experiment: Functional cAMP activation in the presence of 0.1% casein (no HSA); assay type: cell-based; details: in the presence of 0.1% casein (no HSA); geometric mean; read-out: Relative cAMP EC50, hGLP-1R;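 note: intracellular cAMP rise after 30 min at 37 °C read by HTRF, normalized between buffer only (0%) and maximal control ligand (100%), four-parameter variable-slope fit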
Sequence (P43220 24-463): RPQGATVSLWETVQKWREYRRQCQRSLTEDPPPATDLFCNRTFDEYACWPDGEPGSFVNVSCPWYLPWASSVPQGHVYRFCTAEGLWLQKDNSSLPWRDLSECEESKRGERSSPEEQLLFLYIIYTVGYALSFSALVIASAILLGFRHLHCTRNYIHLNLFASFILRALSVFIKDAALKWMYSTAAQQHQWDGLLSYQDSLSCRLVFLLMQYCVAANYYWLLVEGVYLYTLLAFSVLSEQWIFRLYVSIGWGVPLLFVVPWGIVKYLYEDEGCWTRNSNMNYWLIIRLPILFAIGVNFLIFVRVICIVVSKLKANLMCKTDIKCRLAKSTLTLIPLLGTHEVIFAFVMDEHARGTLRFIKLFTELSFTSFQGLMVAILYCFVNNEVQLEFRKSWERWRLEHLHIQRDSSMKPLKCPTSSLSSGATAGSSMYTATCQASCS
Starred links: 1 amine or outer side, 2 acyl side, 3 side chain; linkers in the order of their positions; H or OH if unused. Non-standard residues stand in square brackets, D forms with d. Groups on a side chain read outwards from the residue. No end group written: not given here. *: point of attachment. C18 diacid = O=C(O)CCCCCCCCCCCCCCCCC(=O)*; γGlu = O=C(O)[C@H](CCC(=O)[*:2])N[*:1]; αMe4Pal = C[C@](N)(Cc1ccncc1)C(=O)O; αMeY = C[C@](N)(Cc1ccc(O)cc1)C(=O)O; 4Pal = N[C@@H](Cc1ccncc1)C(=O)O; αMeL = CC(C)C[C@](C)(N)C(=O)O; Orn = NCCC[C@H](N)C(=O)O; AEEA = NCCOCCOCC(=O)O; Aib = CC(C)(N)C(=O)O
measured_quantity: pEC50
Scale: pEC50 equals -log10([C]), with [C] in mol/L.

Q. Query: pEC50; subject: Y[Aib]QGTFTSD[4Pal]SQ[αMeL]LDKK([dE-dE-γGlu-C18 diacid])AQ[αMe4Pal]AFIEYLIE[Aib]GPSSGAPPPSGSE-NH2 [Example 925]
A. 8.38

Q. Field request: pEC50 | item: H-Y[Aib]QGTFTSD[4Pal]SQ[αMeL]LD[Orn]K([dE-γGlu-C18 diacid])AQ[αMe4Pal]QFIQ[αMeY]LIE[Aib]GPSSGEPPPSGGGE-NH2 [Example 1129]
A. 9.30

Q. Returns the measured pEC50 for the input substance. Input: H-Y[Aib]QGTFTSD[4Pal]SQ[αMeL]LDKK([AEEA-γGlu-C18 diacid])AQ[αMe4Pal]AFIE[αMe4Pal]LIE[Aib]GPSSGAPPPSGTGE-NH2 [Example 1117]
A. 8.45

Q. Which measured pEC50 value corresponds to H-Y[Aib]QGTFTSD[4Pal]S[Orn][αMeL]LDKK([AEEA-γGlu-γGlu-C18 diacid])AQ[αMe4Pal]AFIEYLIE[Aib]GPSSGAPPPSGS-NH2 [Example 867] ?
A. 8.13

Q. Requested read-out: pEC50. Entry: H-Y[Aib]QGTFTSDFSK[αMeL]LDKK([AEEA-γGlu-C18 diacid])AQ[Aib]AFIEYLIE[Aib]GESSGAPPPSGS-NH2 [Example 216]
A. 9.28

Q. // lookup pEC50 for H-Y[Aib]QGTFTSD[4Pal]S[Orn][αMeL]LDKK([AEEA-γGlu-C18 diacid])AQ[αMe4Pal]AFIEYLIE[Aib]GESSGAPPPSGE-NH2 [Example 222]
A. 8.44

Q. Returns the measured pEC50 for the input substance. Input: H-Y[Aib]QGTFTSD[4Pal]SK[αMeL]LDKK([AEEA-γGlu-C18 diacid])AQ[Aib]AFIEYLIA[Aib]GESSGAPPPSGS-NH2 [Example 285]
A. 8.54

Q. Look up pEC50: H-Y[Aib]QGTFTSDFS[Orn][αMeL]LDKK([AEEA-γGlu-C18 diacid])AQ[Aib]AFIEWLLEGGESSGAPPPEGS-NH2 [Example 125]
A. 8.39

Q. // lookup pEC50 for H-Y[Aib]QGTFTSD[4Pal]SQ[αMeL]LDKK([γGlu-γGlu-C18 diacid])AQ[αMe4Pal]AFIEWLIEGGPSSGAPPPSGS-NH2 [Example 872]
A. 9.00

Q. Item Y[Aib]QGTFTSD[4Pal]S[Orn][αMeL]LD[Orn]K([AEEA-γGlu-C18 diacid])AQ[Aib]AFIE[αMeY]LLEGGPSSGAPPPSGS-NH2 [Example 933] has what recorded pEC50?
A. 8.63

The values you see were collected from patent US20240270821A1.
